target_or_test_system: DNA gyrase subunit A/DNA gyrase subunit B (Mycobacterium tuberculosis (strain ATCC 25618 / H37Rv), UniProt P9WG45+P9WG47)
Sequence (P9WG45 whole entry): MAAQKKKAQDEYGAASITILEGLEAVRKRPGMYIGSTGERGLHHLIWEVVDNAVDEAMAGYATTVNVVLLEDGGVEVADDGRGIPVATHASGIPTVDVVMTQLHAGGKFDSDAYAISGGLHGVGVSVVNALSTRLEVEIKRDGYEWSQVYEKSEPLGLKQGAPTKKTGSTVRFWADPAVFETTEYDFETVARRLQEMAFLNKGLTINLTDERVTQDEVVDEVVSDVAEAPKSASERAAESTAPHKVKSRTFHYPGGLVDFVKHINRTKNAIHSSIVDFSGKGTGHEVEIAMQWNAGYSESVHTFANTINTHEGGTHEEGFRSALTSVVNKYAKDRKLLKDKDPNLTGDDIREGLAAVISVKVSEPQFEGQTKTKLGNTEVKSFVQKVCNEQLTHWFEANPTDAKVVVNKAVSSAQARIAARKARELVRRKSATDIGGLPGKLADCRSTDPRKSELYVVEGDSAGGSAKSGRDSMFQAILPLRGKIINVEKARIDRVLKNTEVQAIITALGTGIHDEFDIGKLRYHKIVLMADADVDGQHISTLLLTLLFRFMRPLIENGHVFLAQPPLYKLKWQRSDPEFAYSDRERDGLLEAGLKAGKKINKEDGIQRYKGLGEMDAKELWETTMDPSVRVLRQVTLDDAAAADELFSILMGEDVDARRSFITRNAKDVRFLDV
Sequence (P9WG47 whole entry): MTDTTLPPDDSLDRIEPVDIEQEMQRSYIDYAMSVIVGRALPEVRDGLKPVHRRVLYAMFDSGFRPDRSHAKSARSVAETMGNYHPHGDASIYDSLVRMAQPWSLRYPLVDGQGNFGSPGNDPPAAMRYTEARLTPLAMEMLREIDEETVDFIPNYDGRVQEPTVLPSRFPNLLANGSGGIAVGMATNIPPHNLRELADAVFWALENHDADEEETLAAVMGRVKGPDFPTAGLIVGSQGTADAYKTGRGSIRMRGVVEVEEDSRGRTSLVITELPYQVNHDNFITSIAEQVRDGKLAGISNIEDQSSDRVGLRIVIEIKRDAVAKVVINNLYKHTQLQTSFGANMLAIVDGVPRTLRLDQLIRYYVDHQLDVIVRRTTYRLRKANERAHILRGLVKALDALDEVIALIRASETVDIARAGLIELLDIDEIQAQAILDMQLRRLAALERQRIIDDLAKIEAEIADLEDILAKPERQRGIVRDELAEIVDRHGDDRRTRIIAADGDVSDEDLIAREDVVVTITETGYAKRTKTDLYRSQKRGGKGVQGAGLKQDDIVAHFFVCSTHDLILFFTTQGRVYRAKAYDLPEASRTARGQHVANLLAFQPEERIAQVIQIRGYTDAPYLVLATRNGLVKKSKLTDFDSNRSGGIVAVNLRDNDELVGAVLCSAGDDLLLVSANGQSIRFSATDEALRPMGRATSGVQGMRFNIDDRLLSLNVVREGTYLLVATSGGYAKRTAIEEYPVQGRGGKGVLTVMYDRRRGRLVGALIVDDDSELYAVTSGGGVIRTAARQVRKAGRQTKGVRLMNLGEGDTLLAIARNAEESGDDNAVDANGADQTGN
assay_procedure: Inhibition of Mycobacterium tuberculosis DNA gyrase GyrA/GyrB assessed as reduction of enzyme supercoiling activity using relaxed pBR322 DNA substrate incubated for 1 hr at 37 degC by ethidium bromide based gel electrophoresis
Exam item: assign MET to entries whose IC50 is below 50 µM and NOT MET to entries at or above 50 µM. Note that a value of exactly 50 µM receives NOT MET.

Does this compound meet the criterion IC50 < 50 µM? O=C(O)c1cn(C2CC2)c2cc(N3CCNC(C(=O)O)C3)c(F)cc2c1=O (stereo not given)
NOT MET

Quick one: CC1COc2c(N3CCN(C)CC3)c(F)cc3c(=O)c(C(=O)O)cn1c23 (stereo not given)
MET

Quick one: COc1c(N2CCNC(C)C2)c(F)cc2c(=O)c(C(=O)O)cn(C3CC3)c12 (stereo not given)
MET

Quick one: CCOC(=O)C1CN(c2cc3c(cc2F)c(=O)c(C(=O)O)cn3C2CC2)CCN1 (stereo not given)
NOT MET

Quick one: CCCCNC(=O)OCC1CN(c2cc3c(cc2F)c(=O)c(C(=O)O)cn3C2CC2)CCN1 (stereo not given)
NOT MET

* * *

target_or_test_system: DNA gyrase subunit A/DNA gyrase subunit B (Mycobacterium tuberculosis (strain ATCC 25618 / H37Rv), UniProt P9WG45+P9WG47)
assay_procedure: Inhibition of Mycobacterium tuberculosis DNA gyrase GyrA/GyrB assessed as reduction of enzyme supercoiling activity using relaxed pBR322 DNA substrate incubated for 1 hr at 37 degC by ethidium bromide based gel electrophoresis
reported_property: pIC50
The value called pIC50 is obtained by taking minus log10 of the concentration in mol/L.

Give its pIC50 value. Item: CCN1CCN(c2c(F)cc3c(=O)c(C(=O)O)cn(C4CC4)c3c2OC)CC1C(=O)O (configuration not stated)
3.70

Quick one: CCN(CC)C(=O)OCC1CN(c2c(F)cc3c(=O)c(C(=O)O)cn(C4CC4)c3c2OC)CCN1 (configuration not stated)
3.99

Quick one: CCN(CC)C(=O)OCC1CN(c2cc3c(cc2F)c(=O)c(C(=O)O)cn3C2CC2)CCN1 (configuration not stated)
3.24

Quick one: CCN1CCN(c2cc3c(cc2F)c(=O)c(C(=O)O)cn3C2CC2)CC1C(=O)O (configuration not stated)
3.92

Quick one: COc1c(N2CCNC(C(=O)O)C2)c(F)cc2c(=O)c(C(=O)O)cn(C3CC3)c12 (configuration not stated)
4.40

Quick one: CCOC(=O)C1CN(c2c(F)cc3c(=O)c(C(=O)O)cn(C4CC4)c3c2OC)CCN1 (configuration not stated)
4.31

Quick one: CCCCNC(=O)OCC1CN(c2c(F)cc3c(=O)c(C(=O)O)cn(C4CC4)c3c2OC)CCN1 (configuration not stated)
4.46

* * *

Give measured IC50 for each item. Keep answers brief.
Tested on: Mycobacterium leprae
assay_procedure: Inhibition of Mycobacterium leprae DNA gyrase GyrA/GyrB assessed as reduction of enzyme supercoiling activity using relaxed pBR322 DNA substrate incubated for 2 hrs at 30 degC by ethidium bromide based gel electrophoresis
Number only, in µg/mL; omit the unit.

Give its IC50 value. Item: COc1c(N2CCNC(C)C2)c(F)cc2c(=O)c(C(=O)O)cn(C3CC3)c12 (stereo not drawn)
3

Quick one: CCOC(=O)C1CN(c2cc3c(cc2F)c(=O)c(C(=O)O)cn3C2CC2)CCN1 (stereo not drawn)
20

Quick one: CCN1CCN(c2cc3c(cc2F)c(=O)c(C(=O)O)cn3C2CC2)CC1C(=O)O (stereo not drawn)
35

Quick one: `O=C(O)c1cn(C2CC2)c2cc(N3CCNCC3)c(F)cc2c1=O`
2

Quick one: CCN(CC)C(=O)OCC1CN(c2cc3c(cc2F)c(=O)c(C(=O)O)cn3C2CC2)CCN1 (stereo not drawn)
118

Quick one: CCCCNC(=O)OCC1CN(c2cc3c(cc2F)c(=O)c(C(=O)O)cn3C2CC2)CCN1 (stereo not drawn)
22

Quick one: CC1COc2c(N3CCN(C)CC3)c(F)cc3c(=O)c(C(=O)O)cn1c23 (stereo not drawn)
8

Quick one: CCN(CC)C(=O)OCC1CN(c2c(F)cc3c(=O)c(C(=O)O)cn(C4CC4)c3c2OC)CCN1 (stereo not drawn)
20

Quick one: CCCCNC(=O)OCC1CN(c2c(F)cc3c(=O)c(C(=O)O)cn(C4CC4)c3c2OC)CCN1 (stereo not drawn)
10

Quick one: CCN1CCN(c2c(F)cc3c(=O)c(C(=O)O)cn(C4CC4)c3c2OC)CC1C(=O)O (stereo not drawn)
55

Quick one: COc1c(N2CCNC(C(=O)O)C2)c(F)cc2c(=O)c(C(=O)O)cn(C3CC3)c12 (stereo not drawn)
20

Quick one: O=C(O)c1cn(C2CC2)c2cc(N3CCNC(C(=O)O)C3)c(F)cc2c1=O (stereo not drawn)
30

Quick one: CCOC(=O)C1CN(c2c(F)cc3c(=O)c(C(=O)O)cn(C4CC4)c3c2OC)CCN1 (stereo not drawn)
17
